- Test system: HeLa Kyoto
- Method Notes: thermal stability score vs G1/S (z-score of summed log2 fold changes over temperatures); higher = more thermally stable than in G1/S
- Recorded Conditions: cell cycle stage: mitosis
Readout Kind: thermal stability score
Keep it simple and answer with nothing but the number.

Examples with answers:
RABGAP1
-0.37
ZWILCH
0.376
MSESSSKSSQPLASKQEKDGTEKRGRGRPRKQPPVSPGTALVGSQKEPSEVPTPKRPRGRPKGSKNKGAAKTRKTTTTPGRKPRGRPKKLEKEEEEGISQESSEEEQ [HMGA1]
-8.11
MATTAAPAGGARNGAGPEWGGFEENIQGGGSAVIDMENMDDTSGSSFEDMGELHQRLREEEVDADAADAAAAEEEDGEFLGMKGFKGQLSRQVADQMWQAGKRQASRAFSLYANIDILRPYFDVEPAQVRSRLLESMIPIKMVNFPQKIAGELYGPLMLVFTLVAILLHGMKTSDTIIREGTLMGTAIGTCFGYWLGVSSFIYFLAYLCNAQITMLQMLALLGYGLFGHCIVLFITYNIHLHALFYLFWLLVGGLSTLRMVAVLVSRTVGPTQRLLLCGTLAALHMLFLLYLHFAYHKVVEGILDTLEGPNIPPIQRVPRDIPAMLPAARLPTTVLNATAKAVAVTLQSH [YIPF3]
-3.63
MAQYKGAASEAGRAMHLMKKREKQREQMEQMKQRIAEENIMKSNIDKKFSAHYDAVEAELKSSTVGLVTLNDMKAKQEALVKEREKQLAKKEQSKELQMKLEKLREKERKKEAKRKISSLSFTLEEEEEGGEEEEEAAMYEEEMEREEITTKKRKLGKNPDVDTSFLPDRDREEEENRLREELRQEWEAKQEKIKSEEIEITFSYWDGSGHRRTVKMRKGNTMQQFLQKALEILRKDFSELRSAGVEQLMYIKEDLIIPHHHSFYDFIVTKARGKSGPLFNFDVHDDVRLLSDATVEKDESHAGKVVLRSWYEKNKHIFPASRWEPYDPEKKWDKYTIR [FAM50A]
2.04

Please tell me: thermal stability score of MPGPAAGSRARVYAEVNSLRSREYWDYEAHVPSWGNQDDYQLVRKLGRGKYSEVFEAINITNNERVVVKILKPVKKKKIKREVKILENLRGGTNIIKLIDTVKDPVSKTPALVFEYINNTDFKQLYQILTDFDIRFYMYELLKALDYCHSKGIMHRDVKPHNVMIDHQQKKLRLIDWGLAEFYHPAQEYNVRVASRYFKGPELLVDYQMYDYSLDMWSLGCMLASMIFRREPFFHGQDNYDQLVRIAKVLGTEELYGYLKKYHIDLDPHFNDILGQHSRKRWENFIHSENRHLVSPEALDLLDKLLRYDHQQRLTAKEAMEHPYFYPVVKEQSQPCADNAVLSSGLTAAR [CSNK2A2] , system HeLa Kyoto?
2.34

thermal stability score of MSDAAVDTSSEITTKDLKEKKEVVEEAENGRDAPANGNAENEENGEQEADNEVDEEEEEGGEEEEEEEEGDGEEEDGDEDEEAESATGKRAAEDDEDDDVDTKKQKTDEDD [PTMA] on HeLa Kyoto?
-1.69

# query: thermal stability score | item MGKGDPNKPRGKMSSYAFFVQTCREEHKKKHPDSSVNFAEFSKKCSERWKTMSAKEKSKFEDMAKSDKARYDREMKNYVPPKGDKKGKKKDPNAPKRPPSAFFLFCSEHRPKIKSEHPGLSIGDTAKKLGEMWSEQSAKDKQPYEQKAAKLKEKYEKDIAAYRAKGKSEAGKKGPGRPTGSKKKNEPEDEEEEEEEEDEDEEEEDEDEE [HMGB2] | system: HeLa Kyoto
-0.27

----------
- Tested on: HeLa Kyoto
- Method Notes: solubility change mitosis vs G1/S (difference of NP-40 vs SDS log2 ratios) (log2 ratio difference); higher = more soluble in mitosis
A collection of sequences and their measured solubility change mitosis (log2)

MSELPGDVRAFLREHPSLRLQTDARKVRCILTGHELPCRLPELQVYTRGKKYQRLVRASPAFDYAEFEPHIVPSTKNPHQLFCKLTLRHINKCPEHVLRHTQGRRYQRALCKYEECQKQGVEYVPACLVHRRRRREDQMDGDGPRPREAFWEPTSSDEGGAASDDSMTDLYPPELFTRKDLGSTEDGDGTDDFLTDKEDEKAKPPREKATDEGRRETTVYRGLVQKRGKKQLGSLKKKFKSHHRKPKSFSSCKQPG [SURF2]
0.0916
MSSLIRRVISTAKAPGAIGPYSQAVLVDRTIYISGQIGMDPSSGQLVSGGVAEEAKQALKNMGEILKAAGCDFTNVVKTTVLLADINDFNTVNEIYKQYFKSNFPARAAYQVAALPKGSRIEIEAVAIQGPLTTASL [HRSP12]
0.158

Now let's try a different one.
Give the measured solubility change mitosis (log2) of MAEGDAGSDQRQNEEIEAMAAIYGEEWCVIDDCAKIFCIRISDDIDDPKWTLCLQVMLPNEYPGTAPPIYQLNAPWLKGQERADLSNSLEEIYIQNIGESILYLWVEKIRDVLIQKSQMTEPGPDVKKKTEEEDVECEDDLILACQPESSLKALDFDISETRTEVEVEELPPIDHGIPITDRRSTFQAHLAPVVCPKQVKMVLSKLYENKKIASATHNIYAYRIYCEDKQTFLQDCEDDGETAAGGRLLHLMEILNVKNVMVVVSRWYGGILLGPDRFKHINNCARNILVEKNYTNSPEESSKALGKNKKVRKDKKRNEH [IMPACT] .
0.00643

----------
- Test system: HeLa Kyoto
- Method Notes: thermal stability score vs G1/S (z-score of summed log2 fold changes over temperatures); higher = more thermally stable than in G1/S
- Recorded Conditions: cell cycle stage: early G1 (4.5 h after nocodazole release)
Reported thermal stability score values for the following sequences.
Form rule: numeric answer, no unit written next to it.

Guide cases for thermal stability score, answers given:
MASADSRRVADGGGAGGTFQPYLDTLRQELQQTDPTLLSVVVAVLAVLLTLVFWKLIRSRRSSQRAVLLVGLCDSGKTLLFVRLLTGLYRDTQTSITDSCAVYRVNNNRGNSLTLIDLPGHESLRLQFLERFKSSARAIVFVVDSAAFQREVKDVAEFLYQVLIDSMGLKNTPSFLIACNKQDIAMAKSAKLIQQQLEKELNTLRVTRSAAPSTLDSSSTAPAQLGKKGKEFEFSQLPLKVEFLECSAKGGRGDVGSADIQDLEKWLAKIA [SRPRB]
3.56
MSKGTSSDTSLGRVSRAAFPSPTAAEMAEISRIQYEMEYTEGISQRMRVPEKLKVAPPNADLEQGFQEGVPNASVIMQVPERIVVAGNNEDVSFSRPADLDLIQSTPFKPLALKTPPRVLTLSERPLDFLDLERPPTTPQNEEIRAVGRLKRERSMSENAVRQNGQLVRNDSLWHRSDSAPRNKISRFQAPISAPEYTVTPSPQQARVCPPHMLPEDGANLSSARGILSLIQSSTRRAYQQILDVLDENRRPVLRGGSAAATSNPHHDNVRYGISNIDTTIEGTSDDLTVVDAASLRRQIIKLNRRLQLLEEENKERAKREMVMYSITVAFWLLNSWLWFRR [MFF]
0.544
MALDFLAGCAGGVAGVLVGHPFDTVKVRLQVQSVEKPQYRGTLHCFKSIIKQESVLGLYKGLGSPLMGLTFINALVFGVQGNTLRALGHDSPLNQFLAGAAAGAIQCVICCPMELAKTRLQLQDAGPARTYKGSLDCLAQIYGHEGLRGVNRGMVSTLLRETPSFGVYFLTYDALTRALGCEPGDRLLVPKLLLAGGTSGIVSWLSTYPVDVVKSRLQADGLRGAPRYRGILDCVHQSYRAEGWRVFTRGLASTLLRAFPVNAATFATVTVVLTYARGEEAGPEGEAVPAAPAGPALAQPSSL [SLC25A29]
-0.402
MAKVSVLNVAVLENPSPFHSPFRFEISFECSEALADDLEWKIIYVGSAESEEFDQILDSVLVGPVPAGRHMFVFQADAPNPSLIPETDAVGVTVVLITCTYHGQEFIRVGYYVNNEYLNPELRENPPMKPDFSQLQRNILASNPRVTRFHINWDNNMDRLEAIETQDPSLGCGLPLNCTPIKGLGLPGCIPGLLPENSMDCI [ASF1B]
-3.88

Next up:
Report thermal stability score for MFSSVAHLARANPFNTPHLQLVHDGLGDLRSSSPGPTGQPRRPRNLAAAAVEEQYSCDYGSGRFFILCGLGGIISCGTTHTALVPLDLVKCRMQVDPQKYKGIFNGFSVTLKEDGVRGLAKGWAPTFLGYSMQGLCKFGFYEVFKVLYSNMLGEENTYLWRTSLYLAASASAEFFADIALAPMEAAKVRIQTQPGYANTLRDAAPKMYKEEGLKAFYKGVAPLWMRQIPYTMMKFACFERTVEALYKFVVPKPRSECSKPEQLVVTFVAGYIAGVFCAIVSHPADSVVSVLNKEKGSSASLVLKRLGFKGVWKGLFARIIMIGTLTALQWFIYDSVKVYFRLPRPPPPEMPESLKKKLGLTQ [SLC25A3] please.
-1.42
